The measurements presented in this section are drawn from patent US20260297042A1.

# Target entity: WEE1 (Homo sapiens, UniProt P30291)
# Construct: purchased Thermo Fisher PR7373A
# Sequence (P30291 whole entry): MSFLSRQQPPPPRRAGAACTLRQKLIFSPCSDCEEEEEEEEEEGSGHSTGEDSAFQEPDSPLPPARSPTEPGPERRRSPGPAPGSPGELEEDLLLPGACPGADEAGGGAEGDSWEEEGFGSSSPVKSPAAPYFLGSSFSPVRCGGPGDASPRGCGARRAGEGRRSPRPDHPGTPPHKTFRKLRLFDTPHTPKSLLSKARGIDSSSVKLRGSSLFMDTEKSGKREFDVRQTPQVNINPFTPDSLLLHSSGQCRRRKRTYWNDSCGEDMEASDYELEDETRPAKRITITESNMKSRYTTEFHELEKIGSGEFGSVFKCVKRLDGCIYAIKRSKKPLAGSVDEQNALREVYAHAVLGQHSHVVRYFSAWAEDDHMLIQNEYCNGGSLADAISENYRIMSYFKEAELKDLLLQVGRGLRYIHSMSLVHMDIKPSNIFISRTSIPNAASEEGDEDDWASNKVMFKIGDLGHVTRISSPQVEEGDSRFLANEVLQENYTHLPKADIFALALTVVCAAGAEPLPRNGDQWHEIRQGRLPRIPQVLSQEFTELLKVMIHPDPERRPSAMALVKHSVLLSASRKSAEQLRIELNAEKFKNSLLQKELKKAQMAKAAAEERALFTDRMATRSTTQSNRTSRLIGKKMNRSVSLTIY
# Experimental details: Selectivity versus WEE1 assay (ADP-Glo enzymatic assay)
# Format: biochemical
# Assay context: fold difference in selectivity for PKMYT1 over WEE1; banded; ">N" = at least in this band but could be higher
Value kind: PKMYT1 vs. WEE1 selectivity

Compound: Cc1ccc(O)c(C)c1NC(=O)c1cnc(Nc2ccn(CC(=O)N[C@H](C)CO)n2)s1 [BAA-164]
Target entity: WEE1 (Homo sapiens, UniProt P30291)
PKMYT1 vs. WEE1 selectivity: Y (1000-5000 fold)

Compound: Cc1cn(-c2cncc(C(F)(F)F)c2)nc1Nc1ncc(C(=O)Nc2c(C)ccc(O)c2C)s1 [BAA-380]
Target entity: WEE1 (Homo sapiens, UniProt P30291)
PKMYT1 vs. WEE1 selectivity: W (10-<100 fold)

Compound: Cc1ccc(O)c(C)c1NC(=O)c1cnc(Nc2ccn(CC(=O)N3CCN(C(=O)OC(C)(C)C)CC3)n2)s1 [BAA-140]
Target entity: WEE1 (Homo sapiens, UniProt P30291)
PKMYT1 vs. WEE1 selectivity: Y (1000-5000 fold)

Compound: Cc1ccc(O)c(C)c1NC(=O)c1cnc(Nc2ncn(C)n2)s1 [BAA-265]
Target entity: WEE1 (Homo sapiens, UniProt P30291)
PKMYT1 vs. WEE1 selectivity: X (100-<1000 fold)

Compound: CCNC(=O)N1CC[C@@H](n2ccc(Nc3ncc(C(=O)Nc4c(C)ccc(O)c4C)s3)n2)C1 [BAA-109]
Target entity: WEE1 (Homo sapiens, UniProt P30291)
PKMYT1 vs. WEE1 selectivity: >X (100-<1000 fold)

Compound: C=CC(=O)Nc1ccc(C)c(Nc2ncc(C(=O)Nc3c(C)ccc(O)c3C)s2)n1 [BAA-341]
Target entity: WEE1 (Homo sapiens, UniProt P30291)
PKMYT1 vs. WEE1 selectivity: X (100-<1000 fold)

Compound: Cc1ccc(N)nc1Nc1ncc(C(=O)Nc2c(C)ccc(O)c2C)s1 [BAA-337]
Target entity: WEE1 (Homo sapiens, UniProt P30291)
PKMYT1 vs. WEE1 selectivity: X (100-<1000 fold)

Compound: Cc1ccc(O)c(C)c1NC(=O)c1cnc(Nc2ccn(C3COC3)n2)s1 [BAA-007]
Target entity: WEE1 (Homo sapiens, UniProt P30291)
PKMYT1 vs. WEE1 selectivity: W (10-<100 fold)

Incoming: Fill blank: measured PKMYT1 vs. WEE1 selectivity of the compound COc1ccc(CC(=O)N2CCC(CNc3ncc(C(=O)Nc4c(C)ccc(O)c4C)s3)CC2)cc1 [BAA-213] is ____.
Outgoing: >X (100-<1000 fold)

Incoming: Fill blank: measured PKMYT1 vs. WEE1 selectivity of the compound Cc1nnc(Nc2ncc(C(=O)Nc3c(C)ccc(O)c3C)s2)s1 [BAA-263] is ____.
Outgoing: X (100-<1000 fold)

Incoming: Fill blank: measured PKMYT1 vs. WEE1 selectivity of the compound Cc1ccc(O)c(C)c1NC(=O)c1cnc(Nc2ccn([C@@H]3CCN(C(=O)CC4CCOCC4)C3)n2)s1 [BAA-090] is ____.
Outgoing: >X (100-<1000 fold)

Incoming: Fill blank: measured PKMYT1 vs. WEE1 selectivity of the compound Cc1cccc(CNc2ncc(C(=O)Nc3c(C)ccc(O)c3C)s2)c1O [BAA-363] is ____.
Outgoing: X (100-<1000 fold)

Incoming: Fill blank: measured PKMYT1 vs. WEE1 selectivity of the compound Cc1ccc(O)c(C)c1NC(=O)c1cnc(Nc2ccn(CC(=O)N3CCNC(C)(C)C3)n2)s1 [BAA-229] is ____.
Outgoing: Y (1000-5000 fold)

Incoming: Fill blank: measured PKMYT1 vs. WEE1 selectivity of the compound Cc1ccc(O)c(C)c1NC(=O)c1cnc(Nc2c3cccnc3nn2C)s1 [BAA-243] is ____.
Outgoing: X (100-<1000 fold)

Incoming: Fill blank: measured PKMYT1 vs. WEE1 selectivity of the compound Cc1ccc(O)c(C)c1NC(=O)c1cnc(NCCCN2CCN(C)CC2)s1 [BAA-218] is ____.
Outgoing: W (10-<100 fold)

Incoming: Fill blank: measured PKMYT1 vs. WEE1 selectivity of the compound CC(=O)N1CCN(C(=O)Cn2ccc(Nc3ncc(C(=O)Nc4c(C)ccc(O)c4C)s3)n2)CC1 [BAA-145] is ____.
Outgoing: Y (1000-5000 fold)
